system: TK6; experiment: Genotoxicity in p53-competent human TK6 cells in absence of Sprague-Dawley rat S9 fraction by GADD45alpha GFP reporter assay; format: toxicity, cell-based
observation-type: Activity

Previously resolved entries follow.
Cc1cc(COc2ccc(S(=O)(=O)NC3(CC(=O)NO)CN(C(=O)C(C)(C)N(C)C)C3)cc2)c2ccccc2n1 Non-Toxic
CC(=O)N1CC(CC(=O)NO)(NS(=O)(=O)c2ccc(OCc3cc(C)nc4ccccc34)cc2)C1 Non-Toxic
Cc1cc(COc2ccc(S(=O)(=O)NC3(C(=O)NO)CCCCC3)cc2)c2ccccc2n1 Non-Toxic
CC(=O)N1CCC(NS(=O)(=O)c2ccc(OCc3cc(C)nc4ccccc34)cc2)(C(=O)NO)CC1 Toxic
Cc1cc(COc2ccc(S(=O)(=O)NC3(C(=O)NO)CN(C(=O)C(C)C)C3)cc2)c2ccccc2n1 Non-Toxic
Cc1cc(COc2ccc(S(=O)(=O)N(C)C3(C(=O)NO)CN(C(=O)C(C)C)C3)cc2)c2ccccc2n1 Non-Toxic
CC(=O)N1CC2(C1)CC(NS(=O)(=O)c1ccc(OCc3cc(C)nc4ccccc34)cc1)(C(=O)NO)C2 Toxic

Turning now to a further compound:
Measured Activity, Cc1cc(COc2ccc(S(=O)(=O)NC3(C(=O)NO)CC3)cc2)c2ccccc2n1 : Toxic

---

system: TK6; test: Genotoxicity in p53-competent human TK6 cells in absence of Sprague-Dawley rat S9 fraction by GADD45alpha GFP reporter assay; format: toxicity, cell-based
observation-type: Activity

compound	observation-type	result-value
Cc1cc(COc2ccc(S(=O)(=O)NC3(CC(=O)NO)CCN(C(=O)CC(C)C)C3)cc2)c2ccccc2n1 (stereo in doubt; 18g)	Activity	Toxic
Cc1cc(COc2ccc(S(=O)(=O)NC[C@@H](C(=O)NO)N3CCCCC3)cc2)c2ccccc2n1	Activity	Non-Toxic
Cc1cc(COc2ccc(S(=O)(=O)NC3(C(=O)NO)CCC3)cc2)c2ccccc2n1	Activity	Toxic
Cc1cc(COc2ccc(S(=O)(=O)N(C)C3(C(=O)NO)CN(C(=O)CC(C)C)C3)cc2)c2ccccc2n1	Activity	Non-Toxic

---

Biological target: Matrilysin (Homo sapiens)
Sequence (P09237 whole entry): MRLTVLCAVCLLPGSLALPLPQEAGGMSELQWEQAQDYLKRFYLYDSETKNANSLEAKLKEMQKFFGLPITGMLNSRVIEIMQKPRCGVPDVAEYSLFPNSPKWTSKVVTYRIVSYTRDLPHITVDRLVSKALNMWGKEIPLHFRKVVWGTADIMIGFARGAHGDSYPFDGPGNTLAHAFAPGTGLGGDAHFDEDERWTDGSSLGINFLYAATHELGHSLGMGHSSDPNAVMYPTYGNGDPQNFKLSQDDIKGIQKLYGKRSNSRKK
observation-type: IC50 (µM)
Quick reminder: number only, in µM, skip the unit.

Measured IC50, Cc1cc(COc2ccc(S(=O)(=O)N(C)C3(C(=O)NO)CN(C(=O)C(C)C)C3)cc2)c2ccccc2n1 : 0.18

---

compounds and their reported remaining at 730.5 h, 0.1 mg/ml
assay: Stability of the compound in propylene glycol/ethanol96 assessed as parent compound remaining at 0.1 mg/ml after 1 month at 40 degC by HPLC analysis; format: physicochemical; conditions: read-out: Stability
Quick reminder: number only, in %, skip the unit.

Previously resolved entries follow.
CCCCN1CC(CC(=O)NO)(NS(=O)(=O)c2ccc(OCc3cc(C)nc4ccccc34)cc2)C1 72
Cc1cc(COc2ccc(S(=O)(=O)NC3(C(=O)NO)CN(CCC(F)(F)F)C3)cc2)c2ccccc2n1 58
Cc1cc(COc2ccc(S(=O)(=O)NC3(CC(=O)NO)CN(CCC(F)(F)F)C3)cc2)c2ccccc2n1 88

Turning now to a further compound:
Measured remaining at 730.5 h, 0.1 mg/ml, Cc1cc(COc2ccc(S(=O)(=O)N(C)C3(C(=O)NO)CN(CCC(F)(F)F)C3)cc2)c2ccccc2n1 : 98

---

test: Half life in human neonatal keratinocytes at 1 uM by LC-MS/MS analysis; type: ADME, cell-based
molecules and their reported half-life at 1 µM

CC(=O)N1CC(CC(=O)NO)(NS(=O)(=O)c2ccc(OCc3cc(C)nc4ccccc34)cc2)C1 > 24 h
Cc1cc(COc2ccc(S(=O)(=O)N(C)C3(C(=O)NO)CN(C(=O)C(C)C)C3)cc2)c2ccccc2n1 > 24 h
Cc1cc(COc2ccc(S(=O)(=O)NC[C@@H](C(=O)NO)N3CCCCC3)cc2)c2ccccc2n1 > 24 h
CC(=O)N1CC2(C1)CC(NS(=O)(=O)c1ccc(OCc3cc(C)nc4ccccc34)cc1)(C(=O)NO)C2 > 24 h

Measured half-life at 1 µM, Cc1cc(COc2ccc(S(=O)(=O)N(C)C3(C(=O)NO)CN(C(=O)CC(C)C)C3)cc2)c2ccccc2n1 : > 24 h

---

experiment: Aqueous solubility of the compound in PBS at pH 7.4 at 20 degC after 24 hrs by HPLC analysis; type: physicochemical
molecules and their reported solubility at 24 h
Quick reminder: number only, in µM, skip the unit.

Cc1cc(COc2ccc(S(=O)(=O)NC3(CC(=O)NO)CN(C(=O)OC(C)C)C3)cc2)c2ccccc2n1 80

Turning now to a further molecule:
Measured solubility at 24 h, Cc1cc(COc2ccc(S(=O)(=O)NC3(CC(=O)NO)CN(C(=O)N4CCCCC4)C3)cc2)c2ccccc2n1 : 80

---

system: TK6; assay: Genotoxicity in p53-competent human TK6 cells in presence of Sprague-Dawley rat S9 fraction by GADD45alpha GFP reporter assay; type: toxicity, cell-based
observation-type: Activity

Previously resolved entries follow.
compound	target-desc	result-value
Cc1cc(COc2ccc(S(=O)(=O)NC3(C(=O)NO)CN(C(=O)C(C)C)C3)cc2)c2ccccc2n1	TK6	Non-Toxic
Cc1cc(COc2ccc(S(=O)(=O)NC3(C(=O)NO)CC3)cc2)c2ccccc2n1	TK6	Toxic
Cc1cc(COc2ccc(S(=O)(=O)NC3(CC(=O)NO)CN(C(=O)C(C)(C)N(C)C)C3)cc2)c2ccccc2n1	TK6	Non-Toxic
Cc1cc(COc2ccc(S(=O)(=O)NC3(CC(=O)NO)CCN(C(=O)CC(C)C)C3)cc2)c2ccccc2n1 (stereo in doubt; 18g)	TK6	Toxic
Cc1cc(COc2ccc(S(=O)(=O)NC3(C(=O)NO)CCC3)cc2)c2ccccc2n1	TK6	Toxic

Measured Activity, Cc1cc(COc2ccc(S(=O)(=O)NC[C@@H](C(=O)NO)N3CCCCC3)cc2)c2ccccc2n1 : Non-Toxic

Measured Activity, CC(=O)N1CC2(C1)CC(NS(=O)(=O)c1ccc(OCc3cc(C)nc4ccccc34)cc1)(C(=O)NO)C2 : Toxic

Measured Activity, Cc1cc(COc2ccc(S(=O)(=O)N(C)C3(C(=O)NO)CN(C(=O)CC(C)C)C3)cc2)c2ccccc2n1 : Non-Toxic

---

biological target: Disintegrin and metalloproteinase domain-containing protein 10 (Homo sapiens); assay: Inhibition of ADAM10 (unknown origin)
Sequence (O14672 whole entry, the tested form may be a part): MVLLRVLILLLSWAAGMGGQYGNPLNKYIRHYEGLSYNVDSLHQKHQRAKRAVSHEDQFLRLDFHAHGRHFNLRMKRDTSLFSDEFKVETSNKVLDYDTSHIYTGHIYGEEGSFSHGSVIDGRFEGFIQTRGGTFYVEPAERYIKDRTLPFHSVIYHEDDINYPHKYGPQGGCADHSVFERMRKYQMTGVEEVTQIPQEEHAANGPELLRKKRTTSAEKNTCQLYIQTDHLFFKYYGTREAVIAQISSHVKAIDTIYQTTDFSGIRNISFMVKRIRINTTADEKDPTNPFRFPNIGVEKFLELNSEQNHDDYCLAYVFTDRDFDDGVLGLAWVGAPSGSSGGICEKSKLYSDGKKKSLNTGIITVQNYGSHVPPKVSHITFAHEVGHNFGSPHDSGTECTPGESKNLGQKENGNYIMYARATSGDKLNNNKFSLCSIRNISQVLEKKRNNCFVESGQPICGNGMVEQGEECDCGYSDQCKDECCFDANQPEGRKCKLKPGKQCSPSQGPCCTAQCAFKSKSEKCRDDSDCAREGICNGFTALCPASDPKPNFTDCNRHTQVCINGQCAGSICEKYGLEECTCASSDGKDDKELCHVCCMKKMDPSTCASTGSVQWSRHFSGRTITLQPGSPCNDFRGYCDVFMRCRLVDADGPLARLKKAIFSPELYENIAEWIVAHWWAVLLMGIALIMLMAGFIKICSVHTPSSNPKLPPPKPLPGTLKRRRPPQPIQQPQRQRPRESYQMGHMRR
observation-type: IC50 (µM)
Quick reminder: number only, in µM, skip the unit.

Cc1cc(COc2ccc(S(=O)(=O)N(C)C3(C(=O)NO)CN(C(=O)CC(C)C)C3)cc2)c2ccccc2n1 1.3

Turning now to a further compound:
Measured IC50, Cc1cc(COc2ccc(S(=O)(=O)N(C)C3(C(=O)NO)CN(C(=O)C(C)C)C3)cc2)c2ccccc2n1 : 0.95

---

assay: Solubility of the compound in propylene glycol/ethanol96 at 30 mg/ml after 24 hrs by UV-spectrometric analysis; format: physicochemical; conditions: propylene glycol/ethanol96
observation-type: log10 of solubility at 24 h (log10 of the value in µM)
Remember, log10 of solubility at 24 h, in µM.

Previously resolved entries follow.
Cc1cc(COc2ccc(S(=O)(=O)NC3(C(=O)NO)CN(C(=O)CC(C)C)C3)cc2)c2ccccc2n1 3.70
Cc1cc(COc2ccc(S(=O)(=O)NC(C)(C)CC(=O)NO)cc2)c2ccccc2n1 3.20
COCCN(C1(C(=O)NO)CN(C(=O)C(C)C)C1)S(=O)(=O)c1ccc(OCc2cc(C)nc3ccccc23)cc1 3.95

Measured log10 of solubility at 24 h, CC(=O)N1CC(CC(=O)NO)(NS(=O)(=O)c2ccc(Cc3cc(C)nc4ccccc34)cc2)C1 : 3.28

Measured log10 of solubility at 24 h, CCc1cc(COc2ccc(S(=O)(=O)NC3(CC(=O)NO)CN(C(C)=O)C3)cc2)c2ccccc2n1 : 2.60

Measured log10 of solubility at 24 h, Cc1cc(COc2ccc(S(=O)(=O)NCC(=O)NO)cc2)c2ccccc2n1 : 2.00

Measured log10 of solubility at 24 h, Cc1cc(COc2ccc(S(=O)(=O)NC3(C(=O)NO)CC3)cc2)c2ccccc2n1 : 4.66

Measured log10 of solubility at 24 h, CCCCN1CC(CC(=O)NO)(NS(=O)(=O)c2ccc(OCc3cc(C)nc4ccccc34)cc2)C1 : 3.69

Measured log10 of solubility at 24 h, CC#CCOc1ccc(S(=O)(=O)NC2(CC(=O)NO)CN(C(C)=O)C2)cc1 : 3.26

Measured log10 of solubility at 24 h, Cc1cc(COc2ccc(S(=O)(=O)NC3(C(=O)NO)CCCC3)cc2)c2ccccc2n1 : 2.30

Measured log10 of solubility at 24 h, Cc1cc(COc2ccc(S(=O)(=O)NC3(CC(=O)NO)CN(C(=O)CC(C)C)C3)cc2)c2ccccc2n1 : 2.95

Measured log10 of solubility at 24 h, CC(=O)N1CC(CC(=O)NO)(NS(=O)(=O)c2ccc(OCc3cc(C)nc4ccccc34)cc2C)C1 : 2.95

Measured log10 of solubility at 24 h, Cc1cc(COc2ccc(S(=O)(=O)NC3(C(=O)NO)CN(C(=O)C(C)C)C3)cc2)c2ccccc2n1 : 4.23

Measured log10 of solubility at 24 h, Cc1cc(COc2ccc(S(=O)(=O)NC[C@@H](C(=O)NO)N3CCCCC3)cc2)c2ccccc2n1 : 3.90

Each recorded value in this set is attributed to ChEMBL document CHEMBL4184149.
